- Tested on: RPMI 8226S
- PROCEDURE DETAILS: FMCA comparing J1 and AcJ1
- Type: cell-based
- CONDITION: RPMI 8226S cell line
ASSAY READOUT: pIC50
Answers are plain numbers, as −log10 of the molar value.

Could you share which pIC50 value was measured for CCOC(=O)[C@H](Cc1ccc(F)cc1)NC(=O)[C@H](Cc1ccc(N(CCCl)CCCl)cc1)NC(C)=O [AcJ1] ?
5.54

---

- System: U-1906E
- PROCEDURE DETAILS: cells
- Format: cell-based
For each entry below, report its IC50 value.

For orientation, consider the following solved cases.
MOLECULE	IC50
COc1cccc2c1C(=O)c1c(O)c3c(c(O)c1C2=O)C[C@@](O)(C(=O)CO)C[C@@H]3O[C@H]1C[C@H](N)[C@H](O)[C@H](C)O1 [Doxorubicin, doxorubicin]	440 nM
CC[C@@]1(O)C(=O)OCc2c1cc1n(c2=O)Cc2cc3c(CN(C)C)c(O)ccc3nc2-1 [Topotecan, topotecan, reference compound]	80 nM

Here is another molecule to look at.
Give recorded IC50 with U-1906E for the following molecule: CC(=O)O[C@@]12CO[C@@H]1C[C@H](O)[C@@]1(C)C(=O)[C@H](O)C3=C(C)[C@@H](OC(=O)[C@H](O)[C@@H](NC(=O)OC(C)(C)C)c4ccccc4)C[C@@](O)([C@@H](OC(=O)c4ccccc4)[C@H]21)C3(C)C [Docetaxel, docetaxel]
100 nM

---

- Tested on: Solid tumours (PHTC)
- PROCEDURE DETAILS: FMCA in PHTC cultures, Table 4, solid
- CONDITION: 4 µM; n=12-20; 4320 min
Where a name gives a salt, the structure may show the parent alone.
ASSAY READOUT: Tumour cell survival index (%) Solid tumours
Numbers only, in %.

For orientation, consider the following solved cases.
MOLECULE	QUANTITATIVE RESULT
CCOC(=O)[C@H](Cc1ccc(F)cc1)NC(=O)[C@@H](N)Cc1ccc(N(CCCl)CCCl)cc1.Cl	56.5
CCOC(=O)[C@H](Cc1ccc(F)cc1)NC(=O)[C@H](Cc1ccc(N(CCCl)CCCl)cc1)NC(=O)[C@@H]1CCCN1.Cl	36.3

I have 2 molecules here; please give me Tumour cell survival index (%) Solid tumours for each one.
1. CC(C)OC(=O)[C@H](Cc1ccc(F)cc1)NC(=O)[C@@H](N)Cc1ccc(N(CCCl)CCCl)cc1.Cl
2. CCOC(=O)[C@H](Cc1ccc(F)cc1)NC(=O)[C@H](Cc1cccc(N(CCCl)CCCl)c1)NC(=O)[C@@H]1CCCN1 [Example P2, hydrochloride, reference compound]

1. 44.2
2. 68.9

---

For each entry below, report its Tumour cell survival index (%) Hematological tumours value.
- System: Hematological tumours (PHTC)
- PROCEDURE DETAILS: FMCA in PHTC cultures, Table 4, hematological
- CONDITION: 4 µM; n=7-11; 4320 min
Counter-ions that a name gives are not always drawn.
A bare number is not enough; add the unit after it.

COMPOUND	TARGET OR SYSTEM	RESULT
CCOC(=O)[C@H](Cc1ccc(F)cc1)NC(=O)[C@H](Cc1cccc(N(CCCl)CCCl)c1)NC(=O)[C@@H]1CCCN1 [Example P2, hydrochloride, reference compound]	Hematological tumours (PHTC)	7%
CCOC(=O)[C@H](Cc1ccc(F)cc1)NC(=O)[C@@H](N)Cc1ccc(N(CCCl)CCCl)cc1.Cl [Example J1]	Hematological tumours (PHTC)	6.6%
CC(C)OC(=O)[C@H](Cc1ccc(F)cc1)NC(=O)[C@@H](N)Cc1ccc(N(CCCl)CCCl)cc1.Cl [JV28]	Hematological tumours (PHTC)	6.7%

Could you share which Tumour cell survival index (%) Hematological tumours value was measured for CCOC(=O)[C@H](Cc1ccc(F)cc1)NC(=O)[C@H](Cc1ccc(N(CCCl)CCCl)cc1)NC(=O)[C@@H]1CCCN1.Cl [Example J3] ?
7%
